Hello, the source for this data is patent US20240000769A1, in case you need it.

test: Shake flask solubility (24 h) in buffer/biorelevant media; assay type: physicochemical; settings: aqueous buffer, thermodynamic from solid; Phosphate buffer (50 mM), pH 5.8, RT, n=3; read-out: Solubility Measurements (24 h)
measurement.name: solubility at 24 h

* C[C@H]1c2cccc(C(C)(C)O)c2C[C@H](CO)N1C(=O)Cc1c(Cl)ccc2c1c(Cl)nn2C | < 1 µg/mL
